- Test system: SW-620
- protocol: NCI tumour cell line growth inhibition, 48 h
Active and inactive are the calls of the source. No stated cut-off is given here; in the data, active = GI50 up to about 1.1 µM and inactive = higher.
observationType: GI50

Observe how each entry below is paired with its result.
compound	measurementTarget	GI50
CC(C)Oc1cccc(N2C(NCc3c[nH]c4ccccc34)=Nc3ccncc3S2(=O)=O)c1	SW-620	33.7 µM (inactive)
CC1=C(/C=C/C(C)=C/C=C/C(C)=C/C(=O)O)C(C)(C)CCC1 [TRETINOIN]	SW-620	45.8 µM (inactive)
C[n+]1c2ccccc2c(C(=O)Nc2ccc(S(=O)(=O)Nc3ncccn3)cc2)c2ccccc21	SW-620	> 100 µM (inactive)

Task item: Can you share its GI50? I mean this compound: `CN(C)CCN1C(=O)CC[C@@]2(C)C1=CC[C@@H]1[C@@H]2CC[C@@]2(C)[C@H]1CC[C@]2(C)O`
Reply: > 100 µM (inactive)

Task item: Let us now turn to `COC(=O)NC(C(F)(F)F)(C(F)(F)F)P1(=O)OCCCO1`
Reply: 20.7 µM (inactive)

Task item: Another: COC(=O)C(=O)C(C(=O)C=C(C)C)C(=O)C(=O)Nc1cccc(C(C)=O)c1 (configuration not stated)
Reply: > 100 µM (inactive)

Task item: Here is the next compound: CC(C)(C)OC(=O)N1C(=O)C2CCCC21 (configuration not stated)
Reply: > 100 µM (inactive)

Task item: Field entry: `c1ccc2cc(NCNc3ccc4ccccc4c3)ccc2c1`
Reply: 34.2 µM (inactive)

Task item: Would you kindly repeat that for `c1cc(CCN2CCCCC2)ccn1` ?
Reply: > 100 µM (inactive)

Task item: Now give it for `COCn1cnc2c(=O)n(-c3ccc(OC)cc3)c(=S)n(-c3ccc(OC)cc3)c21` too.
Reply: > 100 µM (inactive)

Task item: Another compound to check: `CCOC(=O)Cc1nc2cc(F)c(F)cc2[nH]c1=O`
Reply: > 100 µM (inactive)

---

- Test system: HOP-18
- protocol: NCI tumour cell line growth inhibition, 48 h
Activity calls are given as the source filed them. Cut-off read from the data, not from the text of the source: active = GI50 up to about 1.1 µM and inactive = higher.
Tick one outcome: active, inactive

Illustrative cases are given below, each with its answer.
compound	measurementTarget	labelValue
COc1cc(CNc2cnc3cc(N)ccc3n2)cc(OC)c1OC	HOP-18	inactive
COC(=O)C(=O)Cc1nc2ccccc2s1	HOP-18	inactive
COC(=O)C(=O)C(C(=O)C=C(C)C)C(=O)C(=O)Nc1cccc(C(C)=O)c1 (centres undefined)	HOP-18	inactive
CCOC(=O)[C@H]1Nc2ccc(C)cc2C2c3ccccc3CC21 (some centres undefined)	HOP-18	inactive
O=C1N[C@@H]2C(=C[C@H](O)[C@@H](O)[C@H]2O)c2cc3c(c(O)c21)OCO3 [NARCICLASINE]	HOP-18	active
Cn1c(O)c(C(=O)NC2CCCCC2)c(=O)n(C)c1=S	HOP-18	inactive

Task item: Hi team, can someone confirm the assay call for `Nc1cc[nH]c(=O)n1` ?
Reply: inactive

Task item: Same lookup for `O=[PH](O)c1cccs1` , please.
Reply: inactive

Task item: Try Cc1ccc(S(=O)(=O)NC(C)C(=O)O)cc1 (centres undefined) next.
Reply: inactive

Task item: Can you check `CCOC(=O)C=C1CCC2(CC1)OCCO2` next?
Reply: inactive

Task item: Record: `CCOC(=O)c1c(NNc2ccccc2)nc2ccccc2c1-c1ccccc1`
Reply: inactive
